src = patent US20120129842A1

pIC50 values by entry
Target: full-length proMMP9(1-707) (SEQ ID NO:1) (Homo sapiens, UniProt P14780, R574P)
Construct: made in house; host or cells: HEK293 (proMMP9, secreted); E. coli (MMP3)
Sequence (P14780 20-707 R574P): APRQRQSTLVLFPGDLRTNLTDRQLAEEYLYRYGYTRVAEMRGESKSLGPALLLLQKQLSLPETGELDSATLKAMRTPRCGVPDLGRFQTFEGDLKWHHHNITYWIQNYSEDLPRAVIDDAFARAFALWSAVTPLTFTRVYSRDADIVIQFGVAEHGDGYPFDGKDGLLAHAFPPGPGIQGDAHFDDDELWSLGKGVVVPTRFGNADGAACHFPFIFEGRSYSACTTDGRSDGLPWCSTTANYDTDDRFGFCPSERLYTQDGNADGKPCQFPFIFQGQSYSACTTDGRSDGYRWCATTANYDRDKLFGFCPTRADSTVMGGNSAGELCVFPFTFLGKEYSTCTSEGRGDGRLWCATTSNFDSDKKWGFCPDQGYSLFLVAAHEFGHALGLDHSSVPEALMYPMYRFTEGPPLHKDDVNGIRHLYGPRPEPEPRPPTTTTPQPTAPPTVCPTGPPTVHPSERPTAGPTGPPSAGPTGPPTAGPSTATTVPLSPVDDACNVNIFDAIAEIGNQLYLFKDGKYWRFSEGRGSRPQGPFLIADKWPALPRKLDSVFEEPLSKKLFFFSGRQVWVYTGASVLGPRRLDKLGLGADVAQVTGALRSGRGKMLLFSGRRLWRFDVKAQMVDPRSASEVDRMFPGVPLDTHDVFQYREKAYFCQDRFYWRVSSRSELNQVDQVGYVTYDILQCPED
Assay: proMMP9/MMP3 P126 Activation Assay
Type: biochemical
Details: 20 nM proMMP9, 20 nM MMP3, 80 min 37° C.
pIC50: −log10 of the molar value.

# compound, comparator, pIC50
data = [
    ("CCOC(=O)c1ccc(OCC)c(Nc2nc(-c3sc(N)nc3C)cs2)c1 [Example 81]", "=", 6.19),
    ("CC(=O)Nc1nc(C)c(-c2csc(Nc3cccc4cc(C)oc34)n2)s1 [Example 9]", "=", 5.44),
    ("CCOc1ccc(C(N)=O)cc1Nc1nc(-c2sc(C(=O)NC3CCN(C(C)C)CC3)nc2C)cs1 [Example 122]", "=", 6.60),
    ("Cc1nc(C(=O)N2CCN(c3ccc(C(F)(F)F)cn3)CC2)sc1-c1csc(Nc2cc(C(N)=O)ccc2OC(C)C)n1 [Example 109]", "=", 5.24),
    ("Cc1nc(C(=O)O)sc1-c1csc(Nc2cc(C(N)=O)ccc2OC(C)C)n1 [Example 100]", "=", 6.66),
    ("Cc1nc(C)c(-c2csc(Nc3cc(C(=O)O)ccc3OC(C)C)n2)s1 [Example 76]", "=", 6.37),
    ("COc1ccc(C(N)=O)cc1Nc1nc(-c2sc(N)nc2C(F)(F)F)cs1 [Example 87]", "=", 5.92),
    ("COc1ccc(N)cc1Nc1nc(-c2sc(NC(C)=O)nc2C)cs1 [Example 69]", "=", 5.85),
    ("CNC(=O)c1ccc(OC)c(Nc2nc(-c3sc(N)nc3C)cs2)c1 [Example 66]", "=", 5.31),
    ("CC(C)Oc1ccc(C(N)=O)cc1Nc1nc(-c2sc(N)nc2C(F)(F)F)cs1 [Example 150]", "=", 5.92),
    ("CCOc1ccc(C(N)=O)cc1Nc1nc(-c2sc(N)nc2C)cs1 [Example 7]", "=", 6.59),
    ("Cc1nc(CN2CCN(C(C)C)CC2)sc1-c1csc(Nc2cc(C(N)=O)ccc2OC(C)C)n1 [Example 125]", "=", 6.11),
    ("COc1ccncc1Nc1nc(-c2sc(C)nc2C)cs1 [Example 151]", "=", 6.39),
    ("Cc1cc2cccc(Nc3nc(-c4sc(C)nc4C)cs3)c2o1 [Example 29]", "=", 5.42),
    ("CCS(=O)(=O)c1ccc(OC)c(Nc2nc(-c3sc(N)nc3C)cs2)c1 [Example 51]", "=", 5.39),
    ("CCOc1ccc(C(=O)O)cc1Nc1nc(-c2sc(NC(C)=O)nc2C)cs1 [Example 48]", "=", 5.85),
    ("CCOc1ccc(C(=O)O)cc1Nc1nc(-c2sc(C)nc2C)cs1 [Example 47]", "=", 6.51),
    ("COc1ccc(C#N)cc1Nc1nc(-c2sc(C)nc2C)cs1 [Example 39]", "=", 6.12),
    ("Cc1nc(C)c(-c2csc(Nc3cc(C(N)=O)ccc3OC3CCCC3)n2)s1 [Example 15]", "<", 4.70),
    ("Cc1nc(C2CCN(C)CC2)sc1-c1csc(Nc2cc(C(N)=O)ccc2OC(C)C)n1 [Example 157]", "=", 7.48),
    ("Cc1nc(C)c(-c2nc(Nc3cc(C(N)=O)ccc3OC(C)C)sc2Br)s1 [Example 4]", "=", 5.05),
    ("CCOC(=O)c1nc(C)c(-c2csc(Nc3cc(C(N)=O)ccc3OC(C)C)n2)s1 [Example 99]", "=", 6.23),
    ("COc1ccc(-c2cc[nH]n2)cc1Nc1nc(-c2sc(C)nc2C)cs1 [Example 137]", "=", 5.33),
    ("Cc1nc(CN2CCOCC2)sc1-c1csc(Nc2cc(C(N)=O)ccc2OC(C)C)n1 [Example 124]", "=", 6.17),
    ("Cc1nc(C(=O)N2CCN(C(C)C)CC2)sc1-c1csc(Nc2cc(C(N)=O)ccc2OC(C)C)n1 [Example 103]", "=", 7.01),
    ("COc1cc(C)c(C(N)=O)cc1Nc1nc(-c2sc(C)nc2C)cs1 [Example 36]", "=", 6.17),
    ("CC(=O)Nc1nc(C)c(-c2csc(Nc3cc(C(N)=O)ccc3OC(C)C)n2)s1 [Example 3]", "=", 6.89),
    ("COc1ccc(CC(N)=O)cc1Nc1nc(-c2sc(C)nc2C)cs1 [Example 30]", "=", 5.39),
]
